Numbers sourced from patent US20070208166A1.

Assay read-out IC50; system under study: JIK (Homo sapiens, UniProt Q9H2K8).
Sequence (Q9H2K8 2-318): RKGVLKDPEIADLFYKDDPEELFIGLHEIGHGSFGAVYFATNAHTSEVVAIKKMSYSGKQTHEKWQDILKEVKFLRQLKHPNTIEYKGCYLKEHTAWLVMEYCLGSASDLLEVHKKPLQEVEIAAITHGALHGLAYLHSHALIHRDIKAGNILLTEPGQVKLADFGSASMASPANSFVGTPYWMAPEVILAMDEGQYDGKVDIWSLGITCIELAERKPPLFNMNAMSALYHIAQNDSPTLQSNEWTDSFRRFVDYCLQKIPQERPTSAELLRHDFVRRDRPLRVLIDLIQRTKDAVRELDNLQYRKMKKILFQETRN

> print(dat)
                                   molecule  assay.result
1  CCCCOc1ccc(C(=O)NC(C)C(=O)NC2CCc3ccccc3C2)cc1 (centres unmarked)  50 to 500 nM
2  CCc1ccc(-c2ccc(C(=O)NCC(=O)NC3CCCc4ccccc43)cc2)cc1 (centres unmarked)       < 50 nM
3  COc1ccc2nc(NC(=O)CNC(=O)CC(NC(C)=O)c3ccccc3)sc2c1 (centres unmarked)     > 5000 nM

Task: What IC50 appears in the records for this molecule with JIK (Homo sapiens, UniProt Q9H2K8)? O=C(CNC(=O)NCCc1ccc(-c2ccccc2)cc1)NC1CCCc2ccccc21 (centres unmarked)
Result: > 5000 nM

Task: What IC50 appears in the records for this molecule with JIK (Homo sapiens, UniProt Q9H2K8)? COc1cc2cc(C(=O)N[C@@H](Cc3c[nH]c4ccccc34)C(=O)NC3CCCc4ccccc43)[nH]c2cc1OC (some centres unmarked)
Result: < 50 nM

###

Target: TAO (Homo sapiens, UniProt Q9UL54)
Sequence (Q9UL54 whole entry): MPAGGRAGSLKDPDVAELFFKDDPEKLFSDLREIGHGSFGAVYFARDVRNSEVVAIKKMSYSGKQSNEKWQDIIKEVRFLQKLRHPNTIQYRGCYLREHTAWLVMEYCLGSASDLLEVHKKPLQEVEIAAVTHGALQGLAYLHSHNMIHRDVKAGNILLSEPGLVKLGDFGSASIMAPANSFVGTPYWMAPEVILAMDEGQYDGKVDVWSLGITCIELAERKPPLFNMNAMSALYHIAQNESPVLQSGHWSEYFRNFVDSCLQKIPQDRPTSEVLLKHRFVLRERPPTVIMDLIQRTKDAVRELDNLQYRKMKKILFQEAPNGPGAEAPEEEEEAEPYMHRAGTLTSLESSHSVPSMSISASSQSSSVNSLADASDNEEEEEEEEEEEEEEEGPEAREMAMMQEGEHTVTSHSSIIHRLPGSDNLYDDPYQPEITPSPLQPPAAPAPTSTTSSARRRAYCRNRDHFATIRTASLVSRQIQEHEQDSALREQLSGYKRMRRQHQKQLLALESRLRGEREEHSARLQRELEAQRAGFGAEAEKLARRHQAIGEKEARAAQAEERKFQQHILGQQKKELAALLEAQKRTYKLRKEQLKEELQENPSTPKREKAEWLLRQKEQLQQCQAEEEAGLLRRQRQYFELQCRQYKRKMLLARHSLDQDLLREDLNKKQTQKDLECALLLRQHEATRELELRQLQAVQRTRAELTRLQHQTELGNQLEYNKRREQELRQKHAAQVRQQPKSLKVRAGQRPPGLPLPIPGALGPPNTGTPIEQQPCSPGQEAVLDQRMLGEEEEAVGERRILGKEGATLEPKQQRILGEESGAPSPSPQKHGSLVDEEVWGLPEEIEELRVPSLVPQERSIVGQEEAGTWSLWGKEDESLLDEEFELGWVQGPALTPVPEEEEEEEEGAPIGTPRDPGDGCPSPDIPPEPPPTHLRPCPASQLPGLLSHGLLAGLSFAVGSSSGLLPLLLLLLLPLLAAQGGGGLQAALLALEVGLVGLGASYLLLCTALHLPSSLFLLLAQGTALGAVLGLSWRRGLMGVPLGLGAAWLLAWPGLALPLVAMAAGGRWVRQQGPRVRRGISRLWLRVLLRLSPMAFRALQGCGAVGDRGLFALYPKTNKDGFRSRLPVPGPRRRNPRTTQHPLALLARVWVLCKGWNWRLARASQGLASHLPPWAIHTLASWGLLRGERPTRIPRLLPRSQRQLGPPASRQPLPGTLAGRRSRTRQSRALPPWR
Experiment: TAO Luciferase-Coupled Chemiluminescent Kinase assay (LCCA)
Type: biochemical
Conditions: 2 μM ATP, 10 μM MBP, 12 nM TAO, 2 hours; read-out: TAO inhibition IC50
pIC50: −log10 of the molar value.
Assay readout: pIC50

Some solved entries appear below for comparison.
> print(dat)
                                   compound  assay.result
1  O=C(CNC(=O)c1ccc(O)cc1)NC1CCCc2ccccc21 (centres unmarked)  5.30 to 6.30
2  COc1cc2cc(C(=O)NCC(=O)NC3CCCc4ccccc43)[nH]c2cc1OC (centres unmarked)  5.30 to 6.30
3  O=C(COc1ccc(-c2nccc(-c3ccccn3)n2)cc1)NCc1ccc(Cl)c(Cl)c1  6.30 to 7.30
4  O=C(CCN1CCCCC1)NCC(=O)NC1CCCc2ccccc21 (centres unmarked)        < 5.30

Now consider the entry below.
Task: What pIC50 appears in the records for this compound with TAO (Homo sapiens, UniProt Q9UL54)? CCCCCOc1ccc(C(=O)NCC(=O)NC2CCCc3ccccc32)cc1 (centres unmarked)
Result: 6.30 to 7.30

###

Biological target: KIAA 1361 (baculovirus expressed human KIAA 1361 kinase domain 2-322) (Homo sapiens, UniProt Q7L7X3)
Sequence (Q7L7X3 2-322): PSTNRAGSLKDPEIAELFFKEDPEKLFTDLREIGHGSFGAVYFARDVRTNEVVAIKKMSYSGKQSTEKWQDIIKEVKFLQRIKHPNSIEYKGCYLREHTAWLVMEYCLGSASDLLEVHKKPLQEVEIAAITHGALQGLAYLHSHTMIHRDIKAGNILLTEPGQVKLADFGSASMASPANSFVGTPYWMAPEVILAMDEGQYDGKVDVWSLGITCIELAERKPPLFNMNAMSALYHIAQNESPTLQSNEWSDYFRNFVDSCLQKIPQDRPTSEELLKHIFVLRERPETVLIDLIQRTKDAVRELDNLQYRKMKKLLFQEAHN
pIC50: −log10 of the molar value.
Assay readout: pIC50

> print(dat)
                                   compound  assay.result
1  CCc1ccc(-c2ccc(C(=O)NCC(=O)NCC3COc4ccccc4O3)cc2)cc1 (centres unmarked)        < 5.30
2  O=C(CNC(=O)C(NC(=O)C(c1ccccc1)C1CCCC1)c1cccnc1)NC1CCCc2ccccc21 (centres unmarked)        < 5.30
3  Cc1cc(C(=O)NCC(=O)NC2CCCc3ccccc32)cc(C)c1OCc1ccccc1 (centres unmarked)  6.30 to 7.30
4  COc1cc2cc(C(=O)N[C@@H](Cc3c[nH]c4ccccc34)C(=O)NC3CCCc4ccccc43)[nH]c2cc1OC (some centres unmarked)  6.30 to 7.30
5  CCc1ccc(-c2ccc(C(=O)NCC(=O)NC3CCCCC3)cc2)cc1        < 5.30

Task: Which value of pIC50 has been reported for O=C(CCN1CCCCC1)NCC(=O)NC1CCCc2ccccc21 (centres unmarked) in the records?
Result: < 5.30

Task: Which value of pIC50 has been reported for `O=C(CNC(=O)c1ccc(N2CCCCC2)cc1)Nc1cccc2c1CCCC2` in the records?
Result: < 5.30
